These entries and their values trace back to patent US20120039802A1.

Target of assay: T1, cMet-Fc fusion protein (extracellular domain of the cMet receptor expressed as an Fc-fusion protein) (human, UniProt P08581 25-932)
T1 construct: extracellular domain; also called soluble cMet-Fc-fusion protein; soluble cMet receptor; not shown: Fc part
T1 sequence (P08581 25-932): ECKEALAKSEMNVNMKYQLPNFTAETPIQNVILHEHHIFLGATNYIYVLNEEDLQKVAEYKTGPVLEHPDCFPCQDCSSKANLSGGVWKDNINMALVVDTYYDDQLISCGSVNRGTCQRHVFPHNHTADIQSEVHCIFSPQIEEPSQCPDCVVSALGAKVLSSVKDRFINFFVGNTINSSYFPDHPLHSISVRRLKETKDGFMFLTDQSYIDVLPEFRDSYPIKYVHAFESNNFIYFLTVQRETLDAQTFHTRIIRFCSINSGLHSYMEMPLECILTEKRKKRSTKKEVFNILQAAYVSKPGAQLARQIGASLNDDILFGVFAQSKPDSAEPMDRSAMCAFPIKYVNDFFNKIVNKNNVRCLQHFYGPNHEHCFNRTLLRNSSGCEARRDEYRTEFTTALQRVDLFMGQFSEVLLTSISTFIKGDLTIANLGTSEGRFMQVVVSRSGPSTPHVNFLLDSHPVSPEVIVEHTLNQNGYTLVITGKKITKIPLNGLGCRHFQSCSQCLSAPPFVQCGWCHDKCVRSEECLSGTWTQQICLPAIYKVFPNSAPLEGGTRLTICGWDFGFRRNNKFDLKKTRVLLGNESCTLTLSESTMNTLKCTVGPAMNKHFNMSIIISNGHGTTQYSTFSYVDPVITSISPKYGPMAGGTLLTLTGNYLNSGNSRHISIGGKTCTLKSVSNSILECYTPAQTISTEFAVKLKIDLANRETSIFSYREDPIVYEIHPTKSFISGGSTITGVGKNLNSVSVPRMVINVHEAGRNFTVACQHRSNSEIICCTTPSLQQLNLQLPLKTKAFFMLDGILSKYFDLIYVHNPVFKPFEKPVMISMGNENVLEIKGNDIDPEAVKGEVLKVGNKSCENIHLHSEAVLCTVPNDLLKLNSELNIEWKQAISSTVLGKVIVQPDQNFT
Experimental protocol: phage ELISA, cMet-Fc vs TRAIL-Fc
Reported property: Protein ELISA (fold over background) (fold)

* GSSHLCNPEFCHFTAP [465-D09 peptide-displaying phage (SEQ ID NO: 003)] | 3.2
* AGYWSCAGPPMFMCTWQGT [552-G03 peptide-displaying phage (SEQ ID NO: 079)] | 10.7
* AGTMYCLGPPTFICQQYGT [548-C06 peptide-displaying phage (SEQ ID NO: 084)] | 13
* AGSYWCSGPPTFMCRYEGT [545-B12 peptide-displaying phage (SEQ ID NO: 085)] | 17.1
